Assay: protein stability index of a GFP-peptide fusion (GPS, HEK-293T) (PSI 1-6); higher = more stable;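 note: 24-mer peptide tiles fused after GFP, lentivirally expressed, FACS-sorted into six equal bins by GFP/DsRed ratio, decoded by Illumina sequencing, PSI is the read-weighted mean bin number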
Details: treatment: DMSO; c terminus: a fixed tail appended
assay.readout: protein stability index
// no unit string in output, number only

Look up protein stability index for this sequence: YALDMQQSNLEPLSPMTASSFLSF [FEM1A]
2.6

Look up protein stability index for this sequence: RNRPKSTVNTHYFSIDEELVYENF [CDC14A]
2.99

Look up protein stability index for this sequence: KSPSSPQAAFTQQGMEGIKVFLHE [TBX5]
3.58

Look up protein stability index for this sequence: FVRLFVDENLDRMVPISKQPKEKI [NOL4L]
2.41

Look up protein stability index for this sequence: VQKRARSGPQPRLPPCLLPLSPPT [TRIB3]
3.35

Look up protein stability index for this sequence: CEITKRRRKACQACRFTKCLRVGM [ESRRA]
2.26

Look up protein stability index for this sequence: SSFNFFVFFFIFFVQDVLFVLQAI [SCAMP3]
3.17

Look up protein stability index for this sequence: LEAAEALLTLRNSAQAPPDSISLH [DMRTC1]
4.42

Look up protein stability index for this sequence: IDGQGRPRTSQSEETRVWHRRDGK [CAMK2B]
5.2

Look up protein stability index for this sequence: AWETKKILAVSFAPLIQPCHSESG [PCMTD2]
2.35

Look up protein stability index for this sequence: AYNHRTDLFKSFPGPMDWVPRYTG [ADAMTS4]
2.89

Look up protein stability index for this sequence: LPQEHSQIYHCTKRKEEECSTTDH [TBX5]
5.39

Look up protein stability index for this sequence: YKKGRMMKDISNLEENDETRFILS [SLC6A17]
3.35

Look up protein stability index for this sequence: GHLEIVKYLVEHKADLEVSNRHGH [FEM1C]
2.7

Look up protein stability index for this sequence: GSPSRPLSRRQLCPLTPGPGKALG [C2CD2L]
3.81

Look up protein stability index for this sequence: LGQQQRDMRRDEEGSLCAAHLPKA [FBF1]
4.97

Look up protein stability index for this sequence: FLCGRALTSDLYAPMVAGALARLG [SLC25A39]
2.85

Look up protein stability index for this sequence: TCQRVNGIKVQNGGIVTDTPASNH [SLC19A2]
4.08

Look up protein stability index for this sequence: GYSPNGRDANGWTLLHFSAARGKE [ASB7]
2.91

Look up protein stability index for this sequence: EECKDRERPMYGRDSAYQSITHYR [EMD]
4.18

Look up protein stability index for this sequence: SMPVRLLGHSPVLRNITNSQAPDG [CDC25B]
3.23

Look up protein stability index for this sequence: LYYFRLAARSPQGLGASTAEISAR [PTPRD]
2.34

Look up protein stability index for this sequence: SRRSMAHILKARKVLTEPEVRYYL [PLK2]
2.48

Look up protein stability index for this sequence: GILNRPPAPTATVPAPQPPVTKPL [ZNF207]
4.53

Look up protein stability index for this sequence: PFFFTGAFPFNMQELVLKVRIQNP [ANKRD40]
2.27

Look up protein stability index for this sequence: ILRCWKCRKCIASSGCFMEYLENQ [RNF180]
2.36

Look up protein stability index for this sequence: ASKCKGAAVKLADFGLAIEVQGDQ [CAMK2B]
3.5
